target: human TLR8 (Homo sapiens (Human)); assay: TLR8 inhibition reporter assay (HEK-Blue cells, SEAP reporter, R848 stimulation); settings: read-out: TLR8 IC50, HEK-Blue cells overexpressing human TLR8, R848 15.9 μM
Each entry falls in a class defined on IC50; the bands are bin A: < 20 nM; bin B: ≥ 20 nM and < 70 nM; bin C: ≥ 70 nM

Known results for compounds:
{"compound": "CCc1c(-c2cc(C)nc(C)c2)[nH]c2ccc(C3CCN(CC(=O)N(C)C)CC3)cc12 [Example 526]", "class": "bin B"}
{"compound": "Cc1cc(-c2[nH]c3ccc(C4CCN(CC(=O)N(C(C)C)C(C)C)CC4)cc3c2C(C)C)cc(C)n1 [Example 253]", "class": "bin B"}
{"compound": "Cc1cc(-c2[nH]c3ccc(C4CCN(C(=O)CN5CCCC(F)C5)CC4)cc3c2C(C)C)cc(C)n1 (stereo not drawn) [Example 363]", "class": "bin B"}
{"compound": "CCc1c(-c2ccnc(OC)c2)[nH]c2ccc(C3CCN(CCNC)CC3)cc12 [Example 778]", "class": "bin C"}
{"compound": "COc1nccc(-c2[nH]c3ccc(C4CCN(C5CCN(CC(C)C)CC5)CC4)cc3c2C)c1OC [Example 799]", "class": "bin C"}

Band of Cc1cc(-c2[nH]c3ccc(C4CCN(CC(=O)NC5(C)CC5)CC4)cc3c2C(C)C)cc(C)n1 [Example 251] ? bin A

----------
target: human TLR9 (Homo sapiens (Human)); experiment: TLR9 inhibition reporter assay (HEK-Blue cells, SEAP reporter, ODN2006 stimulation); settings: read-out: TLR9 IC50, HEK-Blue cells overexpressing human TLR9, ODN2006 5 nM
pIC50: −log10 of the molar value.
Note to self: values exactly at 6 are Satisfied. So pIC50 at or above 6 is Satisfied, below is Not satisfied.

Known results for compounds:
{"compound": "Cc1cc(-c2[nH]c3ccc(C4CCNCC4)cc3c2C(C)C)c(C#N)c(NCC2CC2)n1", "class": "Not satisfied"}
{"compound": "Cc1cc(-c2[nH]c3ccc(C4CCNCC4)cc3c2CC(F)F)ccn1", "class": "Satisfied"}
{"compound": "CC(C)c1c(-c2cc(C3CC3)ncc2F)[nH]c2ccc(C3CCN(CC(=O)N(C)C)CC3)cc12", "class": "Not satisfied"}

Is the recorded value of pIC50 equal to or greater than 6 for this compound? Cc1c(-c2[nH]c3ccc(C4CCNCC4)cc3c2C(C)C)ccnc1Cl Not satisfied

Item COCCOC(=O)N1CCC(c2ccc3[nH]c(-c4ccnc(C)c4)c(C(C)C)c3c2)CC1 with pIC50 of 6 or above? Not satisfied

Has Cc1cc(-c2[nH]c3ccc(C4CCNCC4)cc3c2C(C)C)c(F)cn1 a recorded pIC50 greater than or equal to 6? Not satisfied

Assess whether reported pIC50 for COc1cc(-c2[nH]c3ccc(C4CCN(Cc5c[nH]c(C)n5)CC4)cc3c2C(C)C)ccn1 sits at 6 or higher. Satisfied

Threshold query (pIC50 >= 6) on COC[C@@H]1CCCN1C(=O)CN1CCC(c2ccc3[nH]c(-c4cc(C)nc(C)c4)c(C(C)C)c3c2)CC1 Satisfied

Determine whether measured pIC50 meets or exceeds 6 for Cc1cc(-c2[nH]c3ccc(C4CCN(C(=O)Cn5ccccc5=O)CC4)cc3c2C(C)C)cc(C)n1 Not satisfied

Dear colleague, could you confirm whether CCc1c(-c2ccnc(OC)c2)[nH]c2ccc(C3CCN(C4CCN(C5CCCC5)CC4)CC3)cc12 has pIC50 at or above 6? Satisfied

Quick check, pIC50 >= 6? Cc1cc(-c2[nH]c3ccc(C4CCN(Cc5c[nH]nc5C)CC4)cc3c2C(C)C)cc(C)n1 Satisfied

Determine whether this compound has pIC50 no lower than 6: Cc1cc(-c2[nH]c3ccc(C4CCN(CC(=O)NCC5CCCO5)CC4)cc3c2C(C)C)cc(C)n1 (stereo not shown) Satisfied

Is it the case that CC(C)c1c(-c2ccncc2)[nH]c2ccc(C3CCNCC3)cc12 has pIC50 reaching or exceeding 6? Not satisfied

----------
molecular target: human TLR7 (Homo sapiens (Human), UniProt Q9NYK1); assay: TLR7 inhibition reporter assay (HEK-Blue cells, SEAP reporter, gardiquimod stimulation); format: cell-based; settings: HEK-Blue cells overexpressing human TLR7, gardiquimod 7.5 μM
Sequence (Q9NYK1 27-1049): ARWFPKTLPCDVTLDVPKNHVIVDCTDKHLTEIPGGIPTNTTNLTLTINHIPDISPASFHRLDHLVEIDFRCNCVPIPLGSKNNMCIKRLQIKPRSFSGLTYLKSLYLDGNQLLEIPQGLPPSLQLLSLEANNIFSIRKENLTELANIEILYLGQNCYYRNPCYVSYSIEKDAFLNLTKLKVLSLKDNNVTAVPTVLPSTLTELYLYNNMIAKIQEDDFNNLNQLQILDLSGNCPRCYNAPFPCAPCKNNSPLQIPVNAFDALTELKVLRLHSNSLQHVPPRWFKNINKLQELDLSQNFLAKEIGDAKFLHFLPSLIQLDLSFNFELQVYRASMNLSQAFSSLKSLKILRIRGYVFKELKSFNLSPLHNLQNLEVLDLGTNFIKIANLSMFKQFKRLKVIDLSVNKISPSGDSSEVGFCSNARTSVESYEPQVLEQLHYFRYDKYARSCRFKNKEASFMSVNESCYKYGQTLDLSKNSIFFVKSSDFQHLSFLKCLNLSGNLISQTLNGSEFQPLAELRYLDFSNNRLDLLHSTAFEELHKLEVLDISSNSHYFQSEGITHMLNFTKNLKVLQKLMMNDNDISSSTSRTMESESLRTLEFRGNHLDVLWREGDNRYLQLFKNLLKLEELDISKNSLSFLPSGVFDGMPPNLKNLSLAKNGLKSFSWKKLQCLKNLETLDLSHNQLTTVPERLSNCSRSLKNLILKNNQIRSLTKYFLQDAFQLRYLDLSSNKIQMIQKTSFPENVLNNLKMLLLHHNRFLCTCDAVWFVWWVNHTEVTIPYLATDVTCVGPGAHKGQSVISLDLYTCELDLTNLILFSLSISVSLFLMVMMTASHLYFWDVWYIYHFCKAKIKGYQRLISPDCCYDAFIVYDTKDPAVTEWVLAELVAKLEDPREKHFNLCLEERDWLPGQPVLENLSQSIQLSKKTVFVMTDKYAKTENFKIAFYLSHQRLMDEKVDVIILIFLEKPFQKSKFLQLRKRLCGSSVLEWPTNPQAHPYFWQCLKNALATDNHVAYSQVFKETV
The reader will find reported pIC50 values listed item by item below.
In plain terms, pIC50 is the concentration in mol/L turned into minus its base-10 logarithm.

{"compound": "Cc1cc(-c2[nH]c3ccc(C4CCN(C5CCCNC5O)CC4)cc3c2C(C)C)ccn1 (centres unmarked)", "pIC50": 7.84}
{"compound": "Cc1cc(-c2[nH]c3ccc(C4CCN(Cc5cc(C)on5)CC4)cc3c2C(C)C)cc(C)n1", "pIC50": 7.64}
{"compound": "CNCCN1CCC(c2ccc3[nH]c(-c4cc(OC)ncc4F)c(C)c3c2)CC1", "pIC50": 5.51}
{"compound": "Cc1cc(-c2[nH]c3ccc(C4CCN(C(=O)CNCC(C)(C)C)CC4)cc3c2C(C)C)cc(C)n1", "pIC50": 8.17}
{"compound": "Cc1cc(-c2[nH]c3ccc(C4CCN(CC(=O)N(C)C)CC4)cc3c2C(C)C)c(F)c(C)n1", "pIC50": 8.77}

Item: CC(C)c1c(-c2cc(C3CC3)ncc2F)[nH]c2ccc(C3CCNCC3)cc12 | pIC50: 7.80

The compound listed as Cc1cc(-c2[nH]c3ccc(C4CCN(C5CCOC(C)(C)C5)CC4)cc3c2C(C)C)ccn1 (centres unmarked) has a reported pIC50 of 7.62

pIC50 reported for this compound CCc1c(-c2ccnc(C(=O)OC)c2)[nH]c2ccc(C3CCN(C4CCN(CC(C)C)CC4)CC3)cc12 : 6.15

----------
target: human TLR7 (Homo sapiens (Human), UniProt Q9NYK1); experiment: TLR7 inhibition reporter assay (HEK-Blue cells, SEAP reporter, gardiquimod stimulation); type: cell-based; conditions: HEK-Blue cells overexpressing human TLR7, gardiquimod 7.5 μM
pIC50: −log10 of the molar value.
Quick rule: pIC50 of at least 8 means Criterion met, below that means Criterion not met.

Completed entries (count: 3):
{"compound": "Cc1cc(-c2[nH]c3ccc(C4CCN(CC5(C)COC5)CC4)cc3c2C(C)C)cc(C)n1", "class": "Criterion met"}
{"compound": "Cc1cc(-c2[nH]c3ccc(C4CCN(C(=O)C5CCOC5)CC4)cc3c2C(C)C)cc(C)n1 (stereo not drawn)", "class": "Criterion met"}
{"compound": "COCC(=O)N1CCC(c2ccc3[nH]c(-c4cc(C)nc(C)c4)c(C(C)C)c3c2)CC1", "class": "Criterion met"}

In plain terms: is recorded pIC50 at least 8 for Cc1cc(-c2[nH]c3ccc(C4CCN(C5CC(C)OC(C)C5)CC4)cc3c2C(C)C)ccn1 (stereo not drawn) [Example 713] ? Criterion met

----------
# pIC50 values compiled below
molecular target: human TLR9 (Homo sapiens (Human), UniProt Q9NR96); experiment: TLR9 inhibition reporter assay (HEK-Blue cells, SEAP reporter, ODN2006 stimulation); details: read-out: TLR9 IC50, HEK-Blue cells overexpressing human TLR9, ODN2006 5 nM;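 note: compounds tested over 0.05 nM to 50 µM, 22 h incubation, inhibition taken as SEAP signal drop from agonist plus DMSO wells toward a known inhibitor control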
Sequence (Q9NR96 26-1032): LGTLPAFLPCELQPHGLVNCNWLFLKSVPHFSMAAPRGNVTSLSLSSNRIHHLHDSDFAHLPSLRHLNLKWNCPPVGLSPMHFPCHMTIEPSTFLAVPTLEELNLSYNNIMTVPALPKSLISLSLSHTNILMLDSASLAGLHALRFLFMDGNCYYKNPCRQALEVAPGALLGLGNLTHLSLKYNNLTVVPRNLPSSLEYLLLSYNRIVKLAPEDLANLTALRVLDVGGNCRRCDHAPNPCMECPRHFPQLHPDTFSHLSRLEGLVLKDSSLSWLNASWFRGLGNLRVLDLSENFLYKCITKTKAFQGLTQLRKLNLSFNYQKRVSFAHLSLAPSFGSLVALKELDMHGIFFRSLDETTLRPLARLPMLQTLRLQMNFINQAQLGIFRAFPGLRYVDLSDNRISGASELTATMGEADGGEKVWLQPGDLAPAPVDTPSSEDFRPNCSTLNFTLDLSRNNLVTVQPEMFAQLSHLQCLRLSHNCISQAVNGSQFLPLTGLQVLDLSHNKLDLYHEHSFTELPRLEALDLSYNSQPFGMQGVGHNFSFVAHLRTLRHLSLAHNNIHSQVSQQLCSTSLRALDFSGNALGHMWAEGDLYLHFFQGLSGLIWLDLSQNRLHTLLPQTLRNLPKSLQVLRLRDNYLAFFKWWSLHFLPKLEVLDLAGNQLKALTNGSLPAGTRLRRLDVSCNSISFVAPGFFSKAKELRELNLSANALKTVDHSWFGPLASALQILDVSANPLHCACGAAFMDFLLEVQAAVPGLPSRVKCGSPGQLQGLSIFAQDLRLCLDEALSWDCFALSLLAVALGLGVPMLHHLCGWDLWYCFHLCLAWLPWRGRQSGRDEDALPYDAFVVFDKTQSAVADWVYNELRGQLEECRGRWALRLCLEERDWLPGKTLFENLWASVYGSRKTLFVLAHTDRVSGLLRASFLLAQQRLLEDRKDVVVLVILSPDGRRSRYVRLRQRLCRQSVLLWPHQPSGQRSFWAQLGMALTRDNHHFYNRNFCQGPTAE
Please note pIC50 is a logarithmic value: minus log10 of concentration in mol/L. Answer with that number alone.

Some entries whose results are on file:
{"compound": "CCN(C)C(=O)CN1CCC(c2ccc3[nH]c(-c4cc(C)nc(C)c4)c(C(C)C)c3c2)CC1 [Example 246]", "pIC50": 6.18}
{"compound": "Cc1cc(-c2[nH]c3ccc(C4CCN(C5CCCC5)CC4)cc3c2C(C)C)cc(C)n1 [Example 326]", "pIC50": 5.95}
{"compound": "Cc1cc(-c2[nH]c3ccc(C4CCN(C(=O)c5c(C)nn(C)c5C)CC4)cc3c2C(C)C)cc(C)n1 [Example 131]", "pIC50": 4.76}
{"compound": "Cc1cc(-c2[nH]c3ccc(C4CCN(CC(=O)N5C[C@@H](C(F)(F)F)C[C@H]5CO)CC4)cc3c2C(C)C)cc(C)n1 [Example 291]", "pIC50": 5.50}

Looking up Cc1cc(-c2[nH]c3ccc(C4CCN(C(=O)CN(C)C)CC4)cc3c2C(C)C)c(F)c(C)n1 [Example 588] , I see its pIC50 listed as 6.07

GET /value?item= Cc1cnc(F)cc1-c1[nH]c2ccc(C3CCNCC3)cc2c1C(C)C [Example 28] &field=pIC50 returns 5.46

Noted for Cc1cc(-c2[nH]c3ccc(C4CCN(C(=O)CN5CCCC5C)CC4)cc3c2C(C)C)cc(C)n1 (centres unmarked) [Example 366] : its pIC50 reads 6.43

----------
molecular target: human TLR8 (Homo sapiens (Human), UniProt Q9NR97); assay: TLR8 inhibition reporter assay (HEK-Blue cells, SEAP reporter, R848 stimulation); details: read-out: TLR8 IC50, HEK-Blue cells overexpressing human TLR8, R848 15.9 μM;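 note: compounds tested from 0.05 nM to 50 µM, 22 h at 37 °C, SEAP measured with HEK-Blue Detection, inhibition relative to agonist plus DMSO versus a known inhibitor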
Sequence (Q9NR97 27-1041): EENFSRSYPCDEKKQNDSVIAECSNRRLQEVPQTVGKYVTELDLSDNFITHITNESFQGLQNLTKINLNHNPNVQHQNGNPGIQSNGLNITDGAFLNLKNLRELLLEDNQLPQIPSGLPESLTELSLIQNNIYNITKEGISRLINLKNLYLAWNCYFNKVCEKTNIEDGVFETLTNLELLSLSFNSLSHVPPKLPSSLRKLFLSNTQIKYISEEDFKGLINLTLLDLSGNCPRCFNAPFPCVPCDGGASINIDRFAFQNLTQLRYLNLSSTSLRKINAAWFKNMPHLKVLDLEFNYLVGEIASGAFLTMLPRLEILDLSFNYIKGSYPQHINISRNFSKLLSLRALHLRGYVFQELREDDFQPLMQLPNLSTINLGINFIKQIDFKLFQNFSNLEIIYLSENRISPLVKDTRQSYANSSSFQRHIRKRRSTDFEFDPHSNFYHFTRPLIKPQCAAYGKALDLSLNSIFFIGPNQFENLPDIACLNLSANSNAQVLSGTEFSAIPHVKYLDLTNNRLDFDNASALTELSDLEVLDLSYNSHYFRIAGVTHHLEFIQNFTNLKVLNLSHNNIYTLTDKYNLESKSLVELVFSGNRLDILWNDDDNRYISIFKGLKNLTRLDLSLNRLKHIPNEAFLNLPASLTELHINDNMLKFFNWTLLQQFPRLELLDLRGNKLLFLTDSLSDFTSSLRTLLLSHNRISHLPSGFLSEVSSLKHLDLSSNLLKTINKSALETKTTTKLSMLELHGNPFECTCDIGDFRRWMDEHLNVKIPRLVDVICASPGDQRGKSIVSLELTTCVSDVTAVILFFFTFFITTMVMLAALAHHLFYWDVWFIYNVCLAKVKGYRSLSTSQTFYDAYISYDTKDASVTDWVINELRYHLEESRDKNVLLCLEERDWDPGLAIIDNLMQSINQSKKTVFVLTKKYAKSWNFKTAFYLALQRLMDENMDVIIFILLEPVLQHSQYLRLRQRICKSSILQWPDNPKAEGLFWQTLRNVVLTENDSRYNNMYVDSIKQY
measure name: IC50
Give me the value, and tack the unit on after it.

Entry Cc1cc(-c2[nH]c3ccc(C4CCN(CC(=O)N(C)C)CC4)cc3c2C(C)C)c(F)c(C)n1 [Example 645] , IC50 reported as 5.8 nM

Per the records, this compound ( Cc1cc(-c2[nH]c3ccc(C4CCN(C(=O)[C@@H]5C[C@H](F)CN5)CC4)cc3c2C(C)C)cc(C)n1 [Example 196] ) has IC50 equal to 16.2 nM

Just so you know, measured IC50 for Cc1c(-c2ccncc2)[nH]c2ccc(C3CCN(C4CCN(CC(C)C)CC4)CC3)cc12 [Example 782] came out at 383 nM

The compound identified as Cc1cc(-c2[nH]c3ccc(C4CCN(CC(=O)N(C)C(C)(C)C)CC4)cc3c2C(C)C)cc(C)n1 [Example 250] registered its IC50 at 36.4 nM

Lookup result for Cc1cc(-c2[nH]c3ccc(C4CCN(Cc5cncs5)CC4)cc3c2C(C)C)cc(C)n1 [Example 444] ; measured IC50: 1.6 nM

Lookup result for COCC(=O)N1CCC(c2ccc3[nH]c(-c4cc(C)nc(C)c4)c(C(C)C)c3c2)CC1 [Example 115] ; measured IC50: 131 nM

// IC50 lookup, compound = Cc1nccc(-c2[nH]c3ccc(C4CCNCC4)cc3c2C(C)C)c1C [Example 30] , result: 22.3 nM

GET /value?item= Cc1cc(-c2[nH]c3ccc(C4CCN(C(=O)Cn5ccc(C(F)(F)F)n5)CC4)cc3c2C(C)C)cc(C)n1 [Example 156] &field=IC50 returns 187 nM

Provenance of the data: patent US10660877B2
